The entries below are paired with their reported MBC.
system: P. aeruginosa ATCC 9027; format: cell-based, Pseudomonas aeruginosa
No end group written: not given here.
Express it in µM; write the number only.

[[record]]
substance = "FPLIARLAAKFLPKIL [OG9c‐De]"
unit_descriptor = "µM"
experimental_value = 64


[in] Please provide the recorded MBC for FPLIARLAAKFLPKIL-NH2 [OG9c‐De‐NH2] , tested on P. aeruginosa ATCC 9027.
[out] 8

====

system: C. albicans ATCC 10231; assay type: cell-based, Candida albicans
No end group written: not given here.
quantity-measured: MIC

# count of solved cases: 3
[[record]]
substance = "FPLIAGLAANFLPKIL-NH2 [OG9‐De‐NH2]"
experimental_value = "> 128 µM"

[[record]]
substance = "FPLIAGLAANFLPKIL [OG9‐De]"
experimental_value = "> 128 µM"

[[record]]
substance = "FPLIARLAAKFLPKIL [OG9c‐De]"
experimental_value = "16 µM"


Consider now this further substance.
[in] What value of MIC has been recorded for this entry: FPLIARLAAKFLPKIL-NH2 [OG9c‐De‐NH2]
[out] 16 µM
